Where do these numbers come from? They come from ChEMBL document CHEMBL1667844.

Exercise: state measured IC50 for each of the molecules provided.
- Test system: A-431
- assay-text: Cytotoxicity against human A431 cells after 48 hrs by MTT assay
- Type: functional, cell-based
- test-conditions: A-431, 48 h
Form entry: value (µM) — number only.

### Prompt Note IC50 for the molecule shown: `O=C(CSc1nc2ccc(NC(=O)CCl)cc2s1)NCc1ccccc1`
### Response 4.4

### Prompt Note IC50 for the molecule shown: `COc1ccccc1C(=O)Nc1ccc2nc(SCC(=O)NCc3ccc(Cl)cc3)sc2c1`
### Response 1.1

====

- Test system: HeLa
- assay-text: Cytotoxicity against human HeLa cells after 48 hrs by MTT assay
- Type: functional, cell-based
Exercise: state measured pIC50 for each of the molecules provided.
Here pIC50 is given on a logarithmic scale as minus log10 of the concentration in mol/L.

### Prompt Note pIC50 for the molecule shown: `COc1ccccc1C(=O)Nc1ccc2nc(SCC(=O)NCc3ccc(Cl)cc3)sc2c1`
### Response 5.38

### Prompt Note pIC50 for the molecule shown: `O=C(CSc1nc2ccc(NC(=O)CCl)cc2s1)NCc1ccccc1`
### Response 5.31
